Tested on: Mycobacterium tuberculosis
assayMethodText: Antimycobacterial activity against moxifloxacin-resistant Mycobacterium tuberculosis harboring DNA gyraseA G88N mutant
Type: functional
Kindly state log10 MIC for each of the entries shown.
Answers are given as log10 of MIC in µg/mL.

O=C1COc2ccc(CN[C@H]3CCN(CCn4c(=O)ccc5ncc(F)cc54)C[C@H]3F)nc2N1 = -1.22

// for each molecule in input: emit log10 MIC
1. O=C(O)c1cn(C2CC2)c2cc(N3CCNCC3)c(F)cc2c1=O [CIPROFLOXACIN]
2. COc1c(N2C[C@@H]3CCCN[C@@H]3C2)c(F)cc2c(=O)c(C(=O)O)cn(C3CC3)c12 [MOXIFLOXACIN]
3. COc1cnc2ccc(=O)n(CCN3CC[C@@H](NCc4cnc(C)c(C#N)c4)[C@@H](F)C3)c2c1
4. Cc1ncc(CNC2CCN(CCn3c(=O)ccc4ccc(C#N)cc43)CC2)cc1C#N

Completion:
[0.90, 0.60, -1.52, -1.22]

// for each molecule in input: emit log10 MIC
1. CC1COc2c(N3CCN(C)CC3)c(F)cc3c(=O)c(C(=O)O)cn1c23 (centres undefined) [OFLOXACIN]
2. CO[C@H]1/C=C/O[C@@]2(C)Oc3c(C)c(O)c4c(O)c(c(/C=N/N5CCN(C)CC5)c(O)c4c3C2=O)NC(=O)/C(C)=C\C=C\[C@H](C)[C@H](O)[C@@H](C)[C@@H](O)[C@@H](C)[C@H](OC(C)=O)[C@@H]1C [RIFAMPIN]
3. N#Cc1ccc2ccc(=O)n(CCN3CCC(NCc4ccc5c(n4)NC(=O)CO5)CC3)c2c1
4. NNC(=O)c1ccncc1 [ISONIAZID]

Completion:
[1.20, -2.10, -1.52, -1.22]

Data provenance is ChEMBL document CHEMBL3286091.
